- System: HT-29
- protocol details: Cytotoxicity against human HT29 cells after 72 hrs
- Format: cell-based
- condition notes: ht-29, 72 h
Some compounds, each annotated with its measured GI.
Answer with a number only, understood to be in µM.

Here's what some known entries look like.
| compound | unit tag | GI |
| --- | --- | --- |
| COc1ccc(CCNCC(=O)N(CCC(c2ccccc2)c2ccccc2)CC(N)=O)cc1 | µM | 9.14 |
| O=C(CNCCC(c1ccccc1)c1ccccc1)NCCC(c1ccccc1)c1ccccc1 | µM | 3.03 |
| COc1ccc(CCN(CC(=O)N(CCC(c2ccccc2)c2ccccc2)CC(N)=O)C(=O)CNCCC(c2ccccc2)c2ccccc2)cc1 | µM | 1.41 |

compound `COc1ccc(CCN(CC(N)=O)C(=O)CNCCC(c2ccccc2)c2ccccc2)cc1` , GI observed: 9.14

Measured GI, `COc1ccc(CCNCC(=O)NCCC(c2ccccc2)c2ccccc2)cc1` : 1.89

GI recorded for this compound, NC(=O)CN(CCC(c1ccccc1)c1ccccc1)C(=O)CN(CCC(c1ccccc1)c1ccccc1)C(=O)CNCC1CCCO1 (centres undefined) , is 2.27

The reported value for `NC(=O)CN(CCC(c1ccccc1)c1ccccc1)C(=O)CNCCC(c1ccccc1)c1ccccc1` in terms of GI is 1.64

Entry `COc1ccc(CCN(CC(=O)NCCC(c2ccccc2)c2ccccc2)C(=O)CNCCC(c2ccccc2)c2ccccc2)cc1` — recorded GI = 1.04

Lab note: measured GI of O=C(CN(CCC(c1ccccc1)c1ccccc1)C(=O)CNCC1CCCO1)NCCC(c1ccccc1)c1ccccc1 (centres undefined) was 0.94
